IC50 values for the compounds below.
- assayed.target: N-terminally GST-tagged HCK (75-526) (Homo sapiens (Human))
- experiment.description: HCK Kinase Assay (ProFluor Src-Family Kinase Assay)
- Type: biochemical
- condition.parameters: HCK inhibitory activity, 50 μM ATP; read-out: HCK Activity

Illustrative cases are given below, each with its answer.
CN1CCN([C@H]2CC[C@H](c3cc(-c4ccc(NC(=O)Nc5cc(C(C)(C)C)on5)cc4)c4c(N)ncnn43)CC2)CC1 | < 50 nM
CCN1CCC(N2CCC(n3nc(-c4ccc(Oc5ccccc5)cc4F)c4c(N)ncnc43)CC2)CC1 | < 50 nM

What does the data say about its IC50? Entry: C[C@@H]1CN([C@H]2CC[C@H](n3cc(-c4ccc(Oc5ccccc5)cc4)c4c(N)ncnc43)CC2)CCN1
250 to 10000 nM

What does the data say about its IC50? Entry: C[C@H]1CN([C@H]2CC[C@@H](c3cc(-c4ccc(Oc5ccccc5)cc4)c4c(N)ncnn43)CC2)CCN1
50 to 250 nM

---

- assayed.target: N-terminally GST-tagged HCK (75-526) (Homo sapiens (Human), UniProt P08631)
- Sequence (P08631 75-526): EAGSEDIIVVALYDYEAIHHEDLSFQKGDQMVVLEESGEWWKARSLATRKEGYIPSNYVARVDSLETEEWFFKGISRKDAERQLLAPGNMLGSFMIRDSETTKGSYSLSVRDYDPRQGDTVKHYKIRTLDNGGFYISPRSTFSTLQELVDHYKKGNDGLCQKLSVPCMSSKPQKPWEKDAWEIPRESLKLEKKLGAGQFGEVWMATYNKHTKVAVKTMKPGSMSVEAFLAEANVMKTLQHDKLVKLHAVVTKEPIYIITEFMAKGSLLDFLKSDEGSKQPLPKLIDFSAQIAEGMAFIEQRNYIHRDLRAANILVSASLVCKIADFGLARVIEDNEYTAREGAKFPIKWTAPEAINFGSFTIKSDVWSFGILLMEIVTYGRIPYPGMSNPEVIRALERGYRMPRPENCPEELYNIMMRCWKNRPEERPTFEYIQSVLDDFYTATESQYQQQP
- experiment.description: HCK Kinase Assay (ProFluor Src-Family Kinase Assay)
- Assay type: biochemical
- condition.parameters: HCK inhibitory activity, 50 μM ATP; read-out: HCK Activity
pIC50: −log10 of the molar value.
metric.name: pIC50

Illustrative cases are given below, each with its answer.
Nc1ncnc2c1c(-c1ccc(Oc3ccccc3)cc1)cn2C1CCC2(CC1)CCN(CCCCO)CC2 | 6.60 to 7.30
C[C@H]1CC(N2CCC(n3nc(-c4ccc(Oc5ccccc5)cc4F)c4c(N)ncnc43)CC2)CCN1 (stereo partly shown) | > 7.30
Nc1ncnc2c1c(-c1ccc(Oc3ccccc3)cc1)cn2[C@H]1CC[C@@H](N2CCCC(N)C2)CC1 (stereo partly shown) | > 7.30
CN(C)[C@@H]1CCCN([C@H]2CC[C@H](n3cc(-c4ccc(Oc5ccccc5)cc4)c4c(N)ncnc43)CC2)C1 | > 7.30
CN1CCC([C@H]2OC[C@@H](n3cc(-c4ccc(Oc5ccccc5)cc4)c4c(N)ncnc43)CO2)CC1 | > 7.30

What does the data say about its pIC50? Entry: Nc1ncnc2c1c(-c1ccc(NC(=O)CCc3ccccc3)cc1)cn2C1CCC(C2OCC(N)CO2)CC1 (stereo not shown)
6.60 to 7.30

What does the data say about its pIC50? Entry: CN1CCN([C@H]2CC[C@H](c3nc(-c4ccc(Oc5ccccc5)cc4F)c4c(N)ncnn43)CC2)CC1
> 7.30

What does the data say about its pIC50? Entry: Nc1ncn([C@H]2CC[C@H](n3cc(-c4ccc(Oc5ccccc5)cc4)c4c(N)ncnc43)CC2)n1
> 7.30

What does the data say about its pIC50? Entry: CN(C)[C@@H]1CN([C@H]2CC[C@H](n3cc(-c4ccc(Oc5ccccc5)cc4F)c4c(N)ncnc43)CC2)C[C@H]1O
> 7.30

What does the data say about its pIC50? Entry: Cc1ccc(Oc2ccc(-c3cn([C@H]4CC[C@H](N5CCN(C)CC5)CC4)c4ncnc(N)c34)cc2)cc1
6.60 to 7.30

What does the data say about its pIC50? Entry: COc1cc(-c2cn([C@H]3CO[C@H](C4CCN(C)CC4)OC3)c3ncnc(N)c23)ccc1Oc1ccccc1
6.60 to 7.30

What does the data say about its pIC50? Entry: CCc1cc(NC(=O)Nc2ccc(-c3cn([C@H]4CC[C@H](N5CCN(C)CC5)CC4)c4ncnc(N)c34)cc2)on1
6.60 to 7.30

What does the data say about its pIC50? Entry: CN1CCC2(CCC(n3cc(-c4ccc(Oc5ccccc5)cc4)c4c(N)ncnc43)CC2)CC1
> 7.30
